Measured pIC50, listed per entry.
- Test system: HepG2 (Homo sapiens)
- Procedure text: Inhibition of PCSK9 protein synthesis in human HepG2 cells by immunoblot analysis
Here pIC50 is given on a logarithmic scale as minus log10 of the concentration in mol/L.

> print(dat)
                                   compound  number
1  COc1ccc2cc3[n+](cc2c1OC)CCc1cc2c(cc1-3)OCO2 [BERBERINE]    5.16

Which value of pIC50 has been reported for CC(C)=CCc1c(O)ccc2c1OC[C@H]1c3ccc4c(c3O[C@@H]21)OC(C)(C)C=C4 [ERYBREADIN D] in the records? 5.11
